Use 100 °C as the dividing line for melting point, with the line itself on the class 1 side and lower values as class 0.

CNC(=O)Oc1ccc(C)c(C)c1	class 0
Cc1nc(-c2ccc(C=O)cc2)no1	class 1
NC(=O)NN=CC(=O)c1cc(C(=O)C=NNC(N)=O)cc(C(=O)C=NNC(N)=O)c1	class 1
Cc1ccc(NN=C2SC(=N)NC2=O)cc1	class 1
O=C(C(Cl)Cl)N(CCO)Cc1ccc(Oc2ccc([N+](=O)[O-])cc2)cc1	class 1
COc1cc(OC)cc(C(N)=O)c1	class 1
COc1c(F)cc(Br)cc1[N+](=O)[O-]	class 0
NS(=O)(=O)c1cc2c(cc1C(F)(F)F)NCNS2(=O)=O	class 1
